# System: T1, huNav1.7α+β1-β2-β3 (human, UniProt Q15858 1-1988; Q07699 19-218; O60939 30-215; Q9NY72 23-215)
# T1 construct: 5N11S variant; also called huNav1.7-beta1-beta2-beta3; huNav1.7α+Navβ1-Navβ2-Navβ3
# Procedure summary: binding FACS, CHO FlpIn cells
Endpoint name: EC50 (nM)

Take a look at these entries with their results.
binder="F010301301 (VHH, vs 387G05: I31T) VHH: EVQLVESGGGLVQAGGSLRLSCDASGRILRTGYMRWHRQGAGKQREFVARITDDSATDYADSVKGRFTISRDNAKNTVYLQMNNLNPEDTAVYYCEALVTASVRGGSIHSGTYWGRGTLVTVSS" observed=7.3
binder="F010301328 (VHH, vs 387G05: T57V) VHH: EVQLVESGGGLVQAGGSLRLSCDASGRILRIGYMRWHRQGAGKQREFVARITDDSAVDYADSVKGRFTISRDNAKNTVYLQMNNLNPEDTAVYYCEALVTASVRGGSIHSGTYWGRGTLVTVSS" observed=5
binder="F010301565 (VHH, vs 387G05: D53G, D58G) VHH: EVQLVESGGGLVQAGGSLRLSCDASGRILRIGYMRWHRQGAGKQREFVARITGDSATGYADSVKGRFTISRDNAKNTVYLQMNNLNPEDTAVYYCEALVTASVRGGSIHSGTYWGRGTLVTVSS" observed=2.1
binder="F0103387G05 (parental)-FLAG-HIS6 (VHH) VHH: EVQLVESGGGLVQAGGSLRLSCDASGRILRIGYMRWHRQGAGKQREFVARITDDSATDYADSVKGRFTISRDNAKNTVYLQMNNLNPEDTAVYYCEALVTASVRGGSIHSGTYWGRGTLVTVSS" observed=4.7
binder="F010301304 (VHH, vs 387G05: I31W) VHH: EVQLVESGGGLVQAGGSLRLSCDASGRILRWGYMRWHRQGAGKQREFVARITDDSATDYADSVKGRFTISRDNAKNTVYLQMNNLNPEDTAVYYCEALVTASVRGGSIHSGTYWGRGTLVTVSS" observed=5.7
binder="F010301314 (VHH, vs 387G05: D23A) VHH: EVQLVESGGGLVQAGGSLRLSCAASGRILRIGYMRWHRQGAGKQREFVARITDDSATDYADSVKGRFTISRDNAKNTVYLQMNNLNPEDTAVYYCEALVTASVRGGSIHSGTYWGRGTLVTVSS" observed=3.5

(a) F010301564 (VHH, vs 387G05: D53G, D54G) VHH: EVQLVESGGGLVQAGGSLRLSCDASGRILRIGYMRWHRQGAGKQREFVARITGGSATDYADSVKGRFTISRDNAKNTVYLQMNNLNPEDTAVYYCEALVTASVRGGSIHSGTYWGRGTLVTVSS
(b) F010301566 (VHH, vs 387G05: D54G, D58G) VHH: EVQLVESGGGLVQAGGSLRLSCDASGRILRIGYMRWHRQGAGKQREFVARITDGSATGYADSVKGRFTISRDNAKNTVYLQMNNLNPEDTAVYYCEALVTASVRGGSIHSGTYWGRGTLVTVSS
Exercise: Hi! Which is lower in terms of EC50, the first one a or the second one b ? Output the label that corresponds to your choice.
Solution: b
